Consider the following compounds and their measured IC50 readings.
# assayTarget: AAK1 (GST-Xa-hAAK1) (Homo sapiens, UniProt Q2M2I8)
# Construct: made in house
# Sequence (Q2M2I8 whole entry): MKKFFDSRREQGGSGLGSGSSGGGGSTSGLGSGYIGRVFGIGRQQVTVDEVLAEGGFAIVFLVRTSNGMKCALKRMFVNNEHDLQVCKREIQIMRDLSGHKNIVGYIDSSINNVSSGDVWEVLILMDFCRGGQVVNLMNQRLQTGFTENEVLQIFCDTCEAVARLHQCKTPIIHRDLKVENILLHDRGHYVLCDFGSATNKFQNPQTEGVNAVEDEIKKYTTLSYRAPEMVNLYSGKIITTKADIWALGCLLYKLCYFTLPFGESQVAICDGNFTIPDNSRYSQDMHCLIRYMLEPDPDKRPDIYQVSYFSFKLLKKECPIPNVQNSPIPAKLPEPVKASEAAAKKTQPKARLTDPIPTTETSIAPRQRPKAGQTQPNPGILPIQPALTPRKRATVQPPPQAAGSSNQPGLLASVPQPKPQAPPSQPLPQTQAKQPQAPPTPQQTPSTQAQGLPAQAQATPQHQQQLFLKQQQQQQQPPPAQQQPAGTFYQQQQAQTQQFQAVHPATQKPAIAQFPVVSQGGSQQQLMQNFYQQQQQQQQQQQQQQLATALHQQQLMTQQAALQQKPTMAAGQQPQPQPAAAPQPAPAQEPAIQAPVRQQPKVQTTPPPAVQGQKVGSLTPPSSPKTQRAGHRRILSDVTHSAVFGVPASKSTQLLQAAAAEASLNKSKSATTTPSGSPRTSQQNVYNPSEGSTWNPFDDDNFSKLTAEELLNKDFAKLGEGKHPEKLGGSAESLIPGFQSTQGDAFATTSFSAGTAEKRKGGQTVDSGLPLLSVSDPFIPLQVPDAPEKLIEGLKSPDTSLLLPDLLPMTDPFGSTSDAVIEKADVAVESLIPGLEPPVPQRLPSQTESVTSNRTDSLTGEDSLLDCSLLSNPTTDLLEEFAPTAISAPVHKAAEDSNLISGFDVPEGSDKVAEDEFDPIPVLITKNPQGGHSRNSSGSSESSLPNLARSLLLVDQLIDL
# measurementNotes: AAK1 Kinase Assay (Caliper LabChip, fluoresceinated peptide substrate)
# Format: biochemical
# conditionLabel: AAK1 functional potency; class symbols; read-out: IC50 (nM), functional potency as IC50 ranges
property: IC50

* CC(C)CCc1cc(=S)c2cc(-c3ccncc3)ccc2[nH]1 | 11 to 100 nM
* CC(=O)Nc1cc(-c2ccc3nc(C(=O)CC(C)C)ccc3c2)ccn1 | 101 to 2500 nM
* COc1cc(CCC(C)C)nc2ccc(-c3ccncc3)cc12 | 101 to 2500 nM
* COc1cc2nc(CCC(C)C)cc(C#N)c2cc1-c1cnco1 | 11 to 100 nM
* CC(C)CC(N)c1ccc2cc(-c3cc(N)nc4ccccc34)ccc2n1 (single isomer, unassigned) [Example 49] | 101 to 2500 nM
* CC(C)CC(N)c1ccc2cc(-c3ccnc(NC(=O)c4ccc(C(F)(F)F)cc4)c3)ccc2n1 (centres unmarked) | 11 to 100 nM
* CC(=O)Nc1cc(-c2ccc3nc(C(N)CC(C)C)ccc3c2)ccn1 (single isomer, unassigned) [Example 34] | 1 to 10 nM
* CC(C)C[C@H](N)c1cc(C#N)c2cc(-c3ccncc3)ccc2n1 (single isomer, unassigned) | 1 to 10 nM
* COc1cc2nc(C(N)CC(C)C)cc(C#N)c2cc1-c1cnco1 (single isomer, unassigned; (-)) | 11 to 100 nM
* COc1cc2nc(CCC(C)C)cc(Br)c2cc1-c1cnco1 | 11 to 100 nM
* CC(C)CC(=O)c1ccc2cc(-c3ccncc3)ccc2n1 | 101 to 2500 nM
* CC(C)CC(N)c1ccc2cc(-c3ccncc3)ccc2n1 (single isomer, unassigned; (-)) [Example 20] | 11 to 100 nM
* CC(C)CC(N)c1cc(-c2nnn[nH]2)c2cc(-c3ccncc3)ccc2n1 (centres unmarked) | 1 to 10 nM
* CC(C)CCc1nc2ccc(-c3ccncc3)cc2c(O)c1Br | 11 to 100 nM
* COc1cnccc1-c1ccc2nc(C(N)CC(C)C)ccc2c1 (single isomer, unassigned; (+)) [Example 22] | 101 to 2500 nM
* CC(C)CC(N)c1ccc2cc(-c3ccncc3)ccc2n1 (single isomer, unassigned; (+)) [Example 21] | 11 to 100 nM
* CCc1cc(C(N)CC(C)C)nc2ccc(-c3ccncc3)cc12 (racemic) | 11 to 100 nM

---

# assayTarget: AAK1 (GST-Xa-hAAK1) (Homo sapiens)
# Construct: made in house
# measurementNotes: AAK1 Kinase Assay (Caliper LabChip, fluoresceinated peptide substrate)
# Type: biochemical
# conditionLabel: AAK1 functional potency; class symbols; read-out: IC50 (nM), functional potency as IC50 ranges
property: IC50

* CC(C)CCc1cc(C#N)c2cc(-c3ccncc3)ccc2n1 | 11 to 100 nM
* Cc1nc2ccc(-c3ccncc3)cc2c(O)c1CC(C)C | 101 to 2500 nM
* CC(C)CC(N)c1ccc2cc(-c3ccnc(NC(=O)c4cccc(F)c4)c3)ccc2n1 (centres unmarked) | 11 to 100 nM
* CC(C)CCc1nc2ccc(-c3ccncc3)cc2cc1C(N)=O | 101 to 2500 nM
* CC(C)CCc1ccc2cc(-c3ccncc3)ccc2n1 | 101 to 2500 nM
* COc1cnccc1-c1ccc2nc(C(N)CC(C)C)ccc2c1 (single isomer, unassigned; (-)) [Example 23] | 101 to 2500 nM
* CC(C)CC(N)c1ccc2cc(-c3cc(N)nc4ccccc34)ccc2n1 (single isomer, unassigned) [Example 48] | 101 to 2500 nM
* CC(C)CC(N)c1ccc2cc(-c3ccnc4ccccc34)ccc2n1 (centres unmarked) | 11 to 100 nM
* COc1cc2nc(CCC(C)C)cc(O)c2cc1-c1cnco1 | 11 to 100 nM
* CC(C)CC(N)c1ccc2cc(-c3ccnc4[nH]ccc34)ccc2n1 (centres unmarked) | 1 to 10 nM
* CC(=O)Nc1cc(-c2ccc3nc(C(N)CC(C)C)ccc3c2)c2ccccc2n1 (single isomer, unassigned) | 101 to 2500 nM
* CC(C)CC(N)c1ccc2cc(-c3ccnc(N)c3)ccc2n1 (centres unmarked) | 1 to 10 nM
* CC(C)CC(N)c1ccc2cc(-c3ccnc(NC4CC4)c3)ccc2n1 (centres unmarked) | 11 to 100 nM
* CC(=O)Nc1cc(-c2ccc3nc(C(N)C4CCCCC4)ccc3c2)ccn1 (centres unmarked) | 1 to 10 nM
* CC(=O)Nc1cc(-c2ccc3nc(C(O)CC(C)C)ccc3c2)ccn1 (centres unmarked) | 11 to 100 nM
* CC(C)CC(N)c1ccc2cc(-c3ccc4cnccc4c3)ccc2n1 (centres unmarked) | 101 to 2500 nM
* NC(=O)c1cc(C(N)C2CCCCC2)nc2ccc(-c3ccncc3)cc12 (single isomer, unassigned) | 101 to 2500 nM
* CC(C)CCc1cc(N(C)C)c2cc(-c3ccncc3)ccc2n1 | 11 to 100 nM
* CC(C)CC(OCC(F)(F)F)c1ccc2cc(-c3ccncc3)ccc2n1 (centres unmarked) | 101 to 2500 nM
* CC(C)CCc1cc(O)c2cc(-c3ccncc3)ccc2n1 | 11 to 100 nM
* COc1cc(-c2ccc3nc(C(N)CC(C)C)ccc3c2)ccn1 (centres unmarked) | 101 to 2500 nM
* CC(C)CC(N)c1cc(C#N)c2cc(-c3ccncc3)cc(F)c2n1 (centres unmarked) | 11 to 100 nM
* CC(=O)Nc1cc(-c2ccc3nc(C(N)CC(C)C)ccc3c2)ccn1 (single isomer, unassigned) [Example 33] | 1 to 10 nM
* CC(C)CCc1nc2ccc(-c3ccncc3)cc2cc1C#N | 101 to 2500 nM
* N#Cc1cc(C(N)C2CCCCC2)nc2ccc(-c3ccncc3)cc12 (centres unmarked) | 101 to 2500 nM
* CC(C)CC(N)c1ccc2cc(-c3ccnc(C4CC4)c3)ccc2n1 (centres unmarked) | 101 to 2500 nM
* CC(C)CCc1cc(Br)c2cc(-c3ccncc3)ccc2n1 | 11 to 100 nM
* CC(C)CC(N)c1ccc2cc(-c3ccnc(N(C)C)n3)ccc2n1 (centres unmarked) | 11 to 100 nM
* CC(C)Cc1cnc2ccc(-c3ccncc3)cc2c1O | 101 to 2500 nM

Value source: patent US9932320B2
